Assay: NCI Yeast Anticancer Drug Screen. Data for the rad50 strain (AID 155);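 note: 0% = growth of vehicle-only cultures of the same strain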
Conditions: S. cerevisiae rad50 strain growth inhibition; at 50.0 µM (retest, dose inferred, filed as 5.0); stronger effect = higher value
The panel holds about 79,000 compounds, 15% with a hit somewhere; the sample as a whole holds those more often.
value kind: growth inhibition (%)
Give the value in % but do not write % after it.

Example compounds with recorded growth inhibition:
compound: O=C(CSSCC(=O)Nc1ccccc1)Nc1ccccc1
growth inhibition [%]: 15
--
compound: CCC(C)OC(=S)S (configuration not stated)
growth inhibition [%]: 36
--
compound: CC12CC(O)C3C(CCC4CCCCC43C)C1CC/C2=N/O (configuration not stated)
growth inhibition [%]: -10
--
compound: Oc1ccc(COCCBr)c2cccnc12
growth inhibition [%]: 98

Given CCCCCCCCCCCCCCCCNCCCN(C)CCCN , respond with its growth inhibition. 98

Given CCOC(=O)c1c(C)n(C)c2c1nnc1ccccc12 , respond with its growth inhibition. 85

Given NC(=O)C(=O)N/N=C/c1ccc([N+](=O)[O-])o1 , respond with its growth inhibition. 49

Given CSc1nc(C)cc(SCc2ccc(Cl)cc2Cl)n1 , respond with its growth inhibition. 4

Given CCOP(=O)(OCC)C(NC(=O)OCC(Cl)(Cl)Cl)n1nnc(C(=O)OC)c1C(=O)OC (configuration not stated) , respond with its growth inhibition. 79

Given O=C(/C(Cl)=N/O)c1ccccc1 , respond with its growth inhibition. 99

Given COc1ccc(/C=C/Cc2cc3c(cc2O)OCO3)cc1 , respond with its growth inhibition. 13

Given COc1ccc(/C=C2/C(=O)NC3SC=C(c4cccc([N+](=O)[O-])c4)N23)cc1 (configuration not stated) , respond with its growth inhibition. 6

###

Assay: NCI Yeast Anticancer Drug Screen. Data for the mec2-1 strain (AID 157)
Details: S. cerevisiae mec2-1 strain, at 50.0 µM (retest, dose inferred, filed as 5.0), stronger effect = higher value
Compounds without any hit were thinned out: in the full panel of roughly 79,000, 15% have a hit.
Rule: 1.0 for growth inhibition not less than 20%, 0.0 for anything less.

Here are 3 compounds together with their reported answers.
compound: CSC(=S)N/N=C(\C)c1ccc[nH]1
assigned category: 1.0

compound: COC(=O)c1ccc(NCC2=C(Br)C(=O)C=CC2=O)cc1Cl
assigned category: 1.0

compound: CCOC(CCCl)OCC
assigned category: 0.0

We now examine a further compound.
Textbook exercise: given the entry O=C(O)Cc1ccc2ccccc2c1-c1ccccc1 , state whether its growth inhibition is greater than or equal to 20%. 1.0

###

Test: NCI Yeast Anticancer Drug Screen. Data for the mlh1 rad18 strain (AID 175)
Settings: S. cerevisiae mlh1 rad18 strain growth inhibition; at 50.0 µM (retest, dose inferred, filed as 5.0); stronger effect = higher value
This is part of a sample that, as a whole, favours compounds with a hit. Of some 79,000 tested, about 15% had one in any assay.
value kind: growth inhibition (%)
Give the value in % but do not write % after it.

Example compounds with recorded growth inhibition:
compound: COc1cccc2c1C(=O)c1c(O)c3c(c(O)c1C2=O)CC(O)(C(C)=O)CC3OC1CC(N/C(C)=C/C(C)=O)C(O)C(C)O1 (stereo not given)
value kind: growth inhibition
unit text: %
test value: 97

compound: COc1ccc(-c2csc(C)n2)cc1OC
value kind: growth inhibition
unit text: %
test value: 11

compound: COc1ccc(C2=C/C(=C3\C(=O)Oc4ccccc4C3=O)SS2)cc1
value kind: growth inhibition
unit text: %
test value: 32

compound: O=S(=O)(Nc1ccccc1)c1ccccc1CC(O)(c1ccccc1)c1ccccc1
value kind: growth inhibition
unit text: %
test value: 90

compound: CC1OC(C)C(O)C2=C1C(=O)c1ccccc1C2=O (stereo not given)
value kind: growth inhibition
unit text: %
test value: 96

Given O=P(Nc1ccccc1)(OCc1ccccc1)OCc1ccccc1 , respond with its growth inhibition. 99

Given CCCCCCCCCCCCCCCCN , respond with its growth inhibition. 98

Given COc1ccc(/C=C/Cc2cc3c(cc2O)OCO3)cc1 , respond with its growth inhibition. 1

Given O=C(/C=C(\C(=O)c1ccccc1)N(/C(=C/C(=O)c1ccccc1)C(=O)c1ccccc1)c1ccccc1)c1ccccc1 , respond with its growth inhibition. 12

Given CCOC1=Cc2c(oc3c(C(C)(C)C)cc(OCC)cc23)OC(C(C)(C)C)=C1 , respond with its growth inhibition. 94

###

Experiment: NCI Yeast Anticancer Drug Screen. Data for the mlh1 rad18 strain (AID 175)
Conditions: S. cerevisiae mlh1 rad18 strain growth inhibition; at 50.0 µM; stronger effect = higher value
Description: Growth inhibition of yeast strains with defined genetic alterations is measured as a screen for potential anti-cancer activity. Selected strains with alterations in DNA damage repair or cell cycle control were exposed to compounds and growth inhibition was measured relative to vehicle treated controls. The strain used in this assay is mlh1 rad18
The panel holds about 79,000 compounds, 15% with a hit somewhere; the sample as a whole holds those more often.
value kind: growth inhibition (%)
Give the value in % but do not write % after it.

Given CCC(=O)Nc1ccc(NC(C)=O)cc1 , respond with its growth inhibition. -8.9

Given COC(=O)c1nnc(C(=O)OC)c2c1[nH]c1ccccc12 , respond with its growth inhibition. 40.1

Given CSc1ccc(/C=C2/C[N+](C)(C)C/C(=C/c3ccc(SC)cc3)C2=O)cc1 , respond with its growth inhibition. 86.7

Given O=C1NC(c2ccccc2)(c2ccccc2)C(=O)N1SC(Cl)(Cl)Cl , respond with its growth inhibition. 87.2

Given N#CN=[N+]([O-])c1ccc(C(=O)O)cc1 , respond with its growth inhibition. 90.9

Given BrC1CCCCCC1 , respond with its growth inhibition. 81.7

Given OC1OCC(OCc2ccccc2)C(OCc2ccccc2)C1OCc1ccccc1 (centres undefined) , respond with its growth inhibition. 98.5

Given Cc1ccc2[nH]c3c(c2c1)[n+]([O-])c1ccccc1[n+]3[O-] , respond with its growth inhibition. -0.5

###

Quick reference for growth inhibition among some compounds
Assay: NCI Yeast Anticancer Drug Screen. Data for the rad50 strain (AID 155);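 note: 0% = growth of vehicle-only cultures of the same strain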
Settings: S. cerevisiae rad50 strain growth inhibition; at 50.0 µM (retest, dose inferred, filed as 5.0); stronger effect = higher value
Compounds without any hit were thinned out: in the full panel of roughly 79,000, 15% have a hit. Calls of active or inactive are those of the source. No stated cut-off is given here; in the data, active means growth inhibition above about 70%; inactive means the rest.

Example compounds with recorded growth inhibition:
compound: CCCCCCCCCCC(O)CN1CCN(c2cccc(Cl)c2)CC1 (stereo unspecified)
test value: 98% (active)
--
compound: FC(F)(F)c1ccc(NC(=S)SCc2ccc(Cl)cc2)cc1
test value: 99% (active)
--
compound: C/C=C\C(/C=C/C)(C(=O)OCCN(C)C)C(/C=C\C)(/C=C/C)C(=O)OCCN(C)C (stereo unspecified)
test value: 97% (active)

Given O=Nc1ccc(O)c(/C=N/O)c1 , respond with its growth inhibition. 94% (active)

Given CC1C/C(=C\c2ccc(O)c(O)c2)C(=O)/C(=C/c2ccc(O)c(O)c2)C1 (stereo unspecified) , respond with its growth inhibition. 71% (active)

Given O=C(O)/C=C/C(=O)NNc1nc2ccccc2s1 , respond with its growth inhibition. -1% (inactive)

###

Quick reference for growth inhibition among some compounds
Assay: NCI Yeast Anticancer Drug Screen. Data for the rad50 strain (AID 155);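 note: 0% = growth of vehicle-only cultures of the same strain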
Settings: S. cerevisiae rad50 strain growth inhibition; at 5.0 µM (retest, dose inferred, filed as 0.5); stronger effect = higher value
Compounds without any hit were thinned out: in the full panel of roughly 79,000, 15% have a hit. Active and inactive are the calls of the source. No stated cut-off is given here; in the data, active means growth inhibition above about 70%; inactive means the rest.

Example compounds with recorded growth inhibition:
compound: O=[N+]([O-])c1cccn2nc(C3OC(CO)C(O)C3O)nc12 (stereo unspecified)
growth inhibition: 3% (inactive)
--
compound: CCCCCCCCCCCCS(=O)(=O)CC(Br)C(=O)c1ccco1 (stereo unspecified)
growth inhibition: 57% (inactive)
--
compound: O=C1C=CC(=C(c2ccccc2)c2ccc(O)cc2)C=C1
growth inhibition: -5% (inactive)
--
compound: CSc1nc(C)cc(SCc2ccc(Cl)cc2Cl)n1
growth inhibition: -3% (inactive)
--
compound: O=C(O)c1c([N+](=O)[O-])cc(C(F)(F)F)cc1[N+](=O)[O-]
growth inhibition: -20% (inactive)

Given CCCCCCCCC/C=C1\CCC(CN(C)C)C1=O (stereo unspecified) , respond with its growth inhibition. -26% (inactive)

Given C[n+]1c(-c2ccc(/C=N\NC(=O)c3ccc(C(=O)N/N=C/c4ccc(-c5cn6ccsc6[n+]5C)cc4)cc3)cc2)cn2ccsc21 , respond with its growth inhibition. 65% (inactive)

Given CC1=C(C)C(N2CCOCC2)CS(=O)(=O)O1 (stereo unspecified) , respond with its growth inhibition. 4% (inactive)

Given O=c1c2ccccc2sc2c([N+](=O)[O-])ccc(NCCNCCO)c12 , respond with its growth inhibition. 57% (inactive)

Given CCCN(CCC)c1ccc(Cc2ccc(N(CCC)CCC)cc2N)c(N)c1 , respond with its growth inhibition. -3% (inactive)

Given COc1cc(NCC(C#N)C#N)ccc1N=Nc1ccc(Cl)cc1 , respond with its growth inhibition. -5% (inactive)
